src = ChEMBL document CHEMBL5058577

Test system: Fibroblast
Assay: Multiplex assay against human fibroblast
Type: toxicity, cell-based
Conditions: 24 h, 1 µM, compound concentration 1 uM, replicate 1
EXPERIMENTAL_READOUT: Population Pyknosed Nuclei (%)
Express your answer in %, writing the number without its unit.

Any idea what Population Pyknosed Nuclei (%) was measured for CCCOc1ccc2[nH]cc(C3=CCNCC3)c2n1.Cl ?
9

Any idea what Population Pyknosed Nuclei (%) was measured for Cc1onc(-c2ccccc2Cl)c1C(=O)N(C)c1ccc(Cl)cc1 ?
16

Any idea what Population Pyknosed Nuclei (%) was measured for O=C(CCCc1ccccc1)Nc1nc2ccccc2c(=O)s1 ?
18

Any idea what Population Pyknosed Nuclei (%) was measured for Cc1noc(-c2ccc(-c3ccc(CC(=O)O)cc3)cc2)c1NC(=O)O[C@H](C)c1ccccc1Cl ?
4

Any idea what Population Pyknosed Nuclei (%) was measured for CCCCC1=NC2(CCCC2)C(=O)N1Cc1ccc(-c2ccccc2-c2nnn[nH]2)cc1 [IRBESARTAN] ?
10

Any idea what Population Pyknosed Nuclei (%) was measured for COc1cccc2c1c(NS(=O)(=O)c1ccc(Cl)s1)nn2Cc1cccc(CNC(=O)C(C)(C)O)c1 ?
12

Any idea what Population Pyknosed Nuclei (%) was measured for O=C(NCCN1CCC(n2c(=O)[nH]c3cc(Cl)ccc32)CC1)c1ccc(F)cc1 [HALOPEMIDE] ?
13

Any idea what Population Pyknosed Nuclei (%) was measured for CC[C@@H](C)Nc1nc(C)nc2c(-c3ccc(OC)nc3C)c(C)nn12 [PEXACERFONT] ?
13

Any idea what Population Pyknosed Nuclei (%) was measured for Cc1c(CC(=O)O)c2cccnc2n1Cc1ccc(S(C)(=O)=O)cc1C(F)(F)F [FEVIPIPRANT] ?
19

Any idea what Population Pyknosed Nuclei (%) was measured for CCc1cc2cc(NS(=O)(=O)c3ccc(C#N)cc3)ccc2n(CC)c1=O ?
17

Any idea what Population Pyknosed Nuclei (%) was measured for COC[C@@H](c1ccc(C(F)(F)F)cc1)N1CCN(C2(C)CCN(C(=O)c3c(C)ncnc3C)CC2)C[C@@H]1C.O=C(O)/C=C\C(=O)O [VICRIVIROC MALEATE] ?
20

Any idea what Population Pyknosed Nuclei (%) was measured for NCCc1cn(S(=O)(=O)c2c(Cl)nc3sccn23)c2ccccc12.O=C(O)C(=O)O ?
13

Any idea what Population Pyknosed Nuclei (%) was measured for N#Cc1cc(F)cc(-c2nc(-c3ccc(F)cn3)no2)c1 ?
11

Any idea what Population Pyknosed Nuclei (%) was measured for C[C@H](N)COC(=O)[C@@H](CCCCN)NC(=O)Cc1c(-c2ccc3ccccc3c2)[nH]c2c1ccc1ccccc12 ?
17

====

Test system: HEK-293T
Experiment: Multiplex assay against HEK293T
Type: toxicity, cell-based
Details: human, 12 h, 10 µM, compound concentration 10 uM, replicate 2
EXPERIMENTAL_READOUT: Population Normal (%)
Express your answer in %, writing the number without its unit.

Any idea what Population Normal (%) was measured for COc1cccc2c1c(NS(=O)(=O)c1ccc(Cl)s1)nn2Cc1cccc(CNC(=O)C(C)(C)O)c1 ?
88

Any idea what Population Normal (%) was measured for CCCCC(=O)N(Cc1ccc(-c2ccccc2-c2nnn[nH]2)cc1)[C@H](C(=O)O)C(C)C ?
89

Any idea what Population Normal (%) was measured for Cc1cnc(-c2cc(N3CCN(C(=O)CCS(C)(=O)=O)CC3)ncc2Cl)c(C)c1 ?
92

Any idea what Population Normal (%) was measured for CN1CCN(c2cc(-c3ccccc3)nc(N)n2)CC1 ?
89

====

Tested on: Fibroblast
Assay: Multiplex assay against human fibroblast
Assay type: toxicity, cell-based
Conditions: 12 h, 1 µM, compound concentration 1 uM, replicate 2
Provide the reported Population Tubulin-Different-Phenotype (%) of each item.
Express your answer in %, writing the number without its unit.

So what Population Tubulin-Different-Phenotype (%) did CC[C@@H](C)Nc1nc(C)nc2c(-c3ccc(OC)nc3C)c(C)nn12 [PEXACERFONT] get with Fibroblast?
65

So what Population Tubulin-Different-Phenotype (%) did CN1CCN(c2cc(-c3ccccc3)nc(N)n2)CC1 get with Fibroblast?
66

So what Population Tubulin-Different-Phenotype (%) did CCc1cc2cc(NS(=O)(=O)c3ccc(C#N)cc3)ccc2n(CC)c1=O get with Fibroblast?
39

So what Population Tubulin-Different-Phenotype (%) did COc1cccc2c1c(NS(=O)(=O)c1ccc(Cl)s1)nn2Cc1cccc(CNC(=O)C(C)(C)O)c1 get with Fibroblast?
18

So what Population Tubulin-Different-Phenotype (%) did Cc1cnc(-c2cc(N3CCN(C(=O)CCS(C)(=O)=O)CC3)ncc2Cl)c(C)c1 get with Fibroblast?
50

So what Population Tubulin-Different-Phenotype (%) did COC[C@@H](c1ccc(C(F)(F)F)cc1)N1CCN(C2(C)CCN(C(=O)c3c(C)ncnc3C)CC2)C[C@@H]1C.O=C(O)/C=C\C(=O)O [VICRIVIROC MALEATE] get with Fibroblast?
41

So what Population Tubulin-Different-Phenotype (%) did Br.CS(=O)(=O)Nc1c(O)ccc2c1CCCC2C1=NCCN1 (stereo not given) get with Fibroblast?
38

So what Population Tubulin-Different-Phenotype (%) did CC(=O)Nc1cccc2c1c(Sc1ccc(Cl)cc1)c(C)n2CC(=O)O [AZD1981] get with Fibroblast?
55

So what Population Tubulin-Different-Phenotype (%) did CCCCCC(O)/C=C/[C@H]1C(=O)CC(O)C1C/C=C\CCCC(=O)O (stereo not given in full) get with Fibroblast?
52

So what Population Tubulin-Different-Phenotype (%) did O=C1[C@H](Cc2ccc(O)cc2)N2C(=O)CCN(C(=O)NCc3ccccc3)[C@H]2CN1Cc1cccc2ccccc12 get with Fibroblast?
58

====

Tested on: Fibroblast
Experiment: Multiplex assay against human fibroblast
Format: toxicity, cell-based
Settings: 24 h, 1 µM, compound concentration 1 uM, replicate 1
EXPERIMENTAL_READOUT: Population Fragmented Nuclei (%)
Express your answer in %, writing the number without its unit.

Any idea what Population Fragmented Nuclei (%) was measured for Cc1onc(-c2ccccc2Cl)c1C(=O)N(C)c1ccc(Cl)cc1 ?
18

Any idea what Population Fragmented Nuclei (%) was measured for CCCCC(=O)N(Cc1ccc(-c2ccccc2-c2nnn[nH]2)cc1)[C@H](C(=O)O)C(C)C ?
15

Any idea what Population Fragmented Nuclei (%) was measured for Cc1cccc(NC(=O)CN2CCC(c3ccccn3)CC2)c1.Cl.Cl ?
18

====

Test system: U2OS
Experiment: Multiplex assay against U2OS
Format: toxicity, cell-based
Conditions: human, 24 h, 10 µM, compound concentration 10 uM, replicate 2
EXPERIMENTAL_READOUT: Population Apoptotic (%)
Express your answer in %, writing the number without its unit.

Any idea what Population Apoptotic (%) was measured for CCCCC1=NC2(CCCC2)C(=O)N1Cc1ccc(-c2ccccc2-c2nnn[nH]2)cc1 [IRBESARTAN] ?
91

Any idea what Population Apoptotic (%) was measured for COc1cccc2c1c(NS(=O)(=O)c1ccc(Cl)s1)nn2Cc1cccc(CNC(=O)C(C)(C)O)c1 ?
88

Any idea what Population Apoptotic (%) was measured for N#Cc1cc(F)cc(-c2nc(-c3ccc(F)cn3)no2)c1 ?
88

Any idea what Population Apoptotic (%) was measured for Cc1noc(-c2ccc(-c3ccc(CC(=O)O)cc3)cc2)c1NC(=O)O[C@H](C)c1ccccc1Cl ?
90

====

Tested on: U2OS
Assay: Multiplex assay against U2OS
Format: toxicity, cell-based
Conditions: human, 24 h, 1 µM, compound concentration 1 uM, replicate 2
Provide the reported Population Mitochondria Different-Phenotype (%) of each item.
Express your answer in %, writing the number without its unit.

Any idea what Population Mitochondria Different-Phenotype (%) was measured for CCCCCC(O)/C=C/[C@H]1C(=O)CC(O)C1C/C=C\CCCC(=O)O (stereo partly drawn) ?
7

Any idea what Population Mitochondria Different-Phenotype (%) was measured for CCc1cc2cc(NS(=O)(=O)c3ccc(C#N)cc3)ccc2n(CC)c1=O ?
7

Any idea what Population Mitochondria Different-Phenotype (%) was measured for NCCc1cn(S(=O)(=O)c2c(Cl)nc3sccn23)c2ccccc12.O=C(O)C(=O)O ?
7

====

System: Fibroblast
Experiment: Multiplex assay against human fibroblast
Format: toxicity, cell-based
Conditions: 48 h, 1 µM, compound concentration 1 uM, replicate 2
EXPERIMENTAL_READOUT: Population Healthy Nuclei (%)
Answer with the figure and its unit, nothing else.

Any idea what Population Healthy Nuclei (%) was measured for CCc1cc2cc(NS(=O)(=O)c3ccc(C#N)cc3)ccc2n(CC)c1=O ?
50%

Any idea what Population Healthy Nuclei (%) was measured for C[C@H](N)COC(=O)[C@@H](CCCCN)NC(=O)Cc1c(-c2ccc3ccccc3c2)[nH]c2c1ccc1ccccc12 ?
50%

Any idea what Population Healthy Nuclei (%) was measured for CN1CCN(c2cc(-c3ccccc3)nc(N)n2)CC1 ?
49%

Any idea what Population Healthy Nuclei (%) was measured for CCCCC(=O)N(Cc1ccc(-c2ccccc2-c2nnn[nH]2)cc1)[C@H](C(=O)O)C(C)C ?
51%

Any idea what Population Healthy Nuclei (%) was measured for COC[C@@H](c1ccc(C(F)(F)F)cc1)N1CCN(C2(C)CCN(C(=O)c3c(C)ncnc3C)CC2)C[C@@H]1C.O=C(O)/C=C\C(=O)O [VICRIVIROC MALEATE] ?
50%
